- Test system: Plasmodium falciparum
- Test method notes: Primary screen in NF54 nanoGlo assay, in single point, at 2uM, 72h
- Type: functional, Erythrocyte
- Condition description: timepoint 72 hour
In all, about 150,000 compounds went through this assay and about 540 (0.36%) showed an effect of 50% or more. This excerpt belongs to a sample that is enriched for strong results.
Readout type: % Inhibition (%)
Give the value in % but do not write % after it.

{"Compound": "CC(C)[C@@H]1CC[C@H](C)C[C@H]1OC(=O)Cn1cc(-c2ccc(Cl)cc2)[n+]2c1CCC2", "% Inhibition [%]": 79}
{"Compound": "CC[n+]1ccc(-c2ncc(-c3ccc(C(C)(C)C)cc3)o2)cc1", "% Inhibition [%]": 66}

Qu. Value lookup for % Inhibition; key = O=C(COc1ccc(Br)cc1F)N[C@@H](C(=O)O)c1ccc(F)c(F)c1
Ans. -17

Qu. Value lookup for % Inhibition; key = CC(C)c1cc(=O)[nH]c(-n2nc(C3CC3)cc2NC(=O)c2ccc(F)c(F)c2)n1
Ans. 5

Qu. Value lookup for % Inhibition; key = O=C1CCCN1[C@H]1CCCN(S(=O)(=O)CC2CCCCC2)CC1
Ans. -7

Qu. Value lookup for % Inhibition; key = C[C@@H](c1cccnc1)N(C)CC(=O)Nc1nccs1
Ans. 9

Qu. Value lookup for % Inhibition; key = CC(C)N(CC(=O)Nc1nccs1)C(=O)COCc1ccccc1
Ans. -7

Qu. Value lookup for % Inhibition; key = CCN(C)C1(CNC(=O)c2ccc(-c3cnccn3)cc2)CCCC1
Ans. -14

Qu. Value lookup for % Inhibition; key = O=C(Nc1cccc(CNc2nc3ccccc3o2)c1)c1ccccn1
Ans. -13

Qu. Value lookup for % Inhibition; key = Cn1ncc(Cl)c1C(=O)NCc1cccnc1Oc1ccc(F)c(F)c1
Ans. -3
